- test_target: APH(3’)-IIb WT (Pseudomonas aeruginosa, UniProt Q9HWR2)
- assay_remarks: ITC
- Assay type: binding

compound	test_target	Kd
NC[C@H]1O[C@H](O[C@H]2[C@H](O[C@@H]3O[C@H](CO)[C@@H](O)[C@H]3O)[C@@H](O)[C@H](N)C[C@@H]2N)[C@H](N)[C@@H](O)[C@@H]1O [ribostamycin]	APH(3’)-IIb WT (Pseudomonas aeruginosa, UniProt Q9HWR2)	10 nM
NC[C@H]1O[C@H](O[C@H]2[C@H](O)[C@@H](O[C@H]3O[C@H](CO)[C@@H](O)[C@H](N)[C@H]3O)[C@H](N)C[C@@H]2N)[C@H](N)[C@@H](O)[C@@H]1O [kanamycin B]	APH(3’)-IIb WT (Pseudomonas aeruginosa, UniProt Q9HWR2)	2 nM
Nc1ncnc2c1ncn2[C@@H]1O[C@H](COP(=O)(O)OP(=O)(O)OP(=O)(O)O)[C@@H](O)[C@H]1O [ATP]	APH(3’)-IIb WT (Pseudomonas aeruginosa, UniProt Q9HWR2)	10000 nM
NCC[C@H](O)C(=O)N[C@@H]1C[C@H](N)[C@@H](O[C@H]2O[C@H](CN)[C@@H](O)[C@H](O)[C@H]2O)[C@H](O)[C@H]1O[C@H]1O[C@H](CO)[C@@H](O)[C@H](N)[C@H]1O [amikacin]	APH(3’)-IIb WT (Pseudomonas aeruginosa, UniProt Q9HWR2)	177000 nM
Nc1ncnc2c1ncn2[C@@H]1O[C@H](COP(=O)(O)OP(=O)(O)O)[C@@H](O)[C@H]1O [ADP]	APH(3’)-IIb WT (Pseudomonas aeruginosa, UniProt Q9HWR2)	4100 nM
NC[C@H]1O[C@H](O[C@H]2[C@H](O)[C@@H](O[C@H]3O[C@H](CO)[C@@H](O)[C@H](N)[C@H]3O)[C@H](N)C[C@@H]2N)[C@H](N)C[C@@H]1O [tobramycin]	APH(3’)-IIb WT (Pseudomonas aeruginosa, UniProt Q9HWR2)	23 nM
NC[C@@H]1O[C@H](O[C@H]2[C@@H](O)[C@H](O[C@@H]3[C@@H](O)[C@H](N)C[C@H](N)[C@H]3O[C@H]3O[C@H](CO)[C@@H](O)[C@H](O)[C@H]3N)O[C@@H]2CO)[C@H](N)[C@@H](O)[C@@H]1O [paromomycin]	APH(3’)-IIb WT (Pseudomonas aeruginosa, UniProt Q9HWR2)	173 nM
NC[C@@H]1O[C@H](O[C@H]2[C@@H](O)[C@H](O[C@@H]3[C@@H](O)[C@H](N)C[C@H](N)[C@H]3O[C@H]3O[C@H](CN)[C@@H](O)[C@H](O)[C@H]3N)O[C@@H]2CO)[C@H](N)[C@@H](O)[C@@H]1O [neomycin]	APH(3’)-IIb WT (Pseudomonas aeruginosa, UniProt Q9HWR2)	12 nM

###

- test_target: APH(3’)-IIb WT (Pseudomonas aeruginosa, UniProt Q9HWR2)
- assay_remarks: biochemical
pKd: −log10 of the molar value.
assay_metric: pKd

compound	assay_metric	value_measured
CN[C@@H]1[C@@H](O)[C@@H](O[C@@H]2[C@@H](O)[C@H](O[C@H]3O[C@H]([C@@H](C)O)[C@@H](O)[C@H](O)[C@H]3N)[C@@H](N)C[C@H]2N)OC[C@]1(C)O [Geneticin]	pKd	5.80
CNC(C)[C@@H]1CC[C@@H](N)[C@@H](O[C@H]2[C@H](O)[C@@H](O[C@H]3OC[C@](C)(O)[C@H](NC)[C@H]3O)[C@H](N)C[C@@H]2N)O1 (some centres unmarked) [gentamicin]	pKd	7.23

###

- test_target: APH(3’)-IIb WT (Pseudomonas aeruginosa, UniProt Q9HWR2, M95L)
- assay_remarks: PK/LDH coupled assay
- Format: biochemical
- measurement_context: 100 µM MgATP, Tris buffer pH 7.5, 25 °C
Lab note: compare Km against 0.2 µM. Equal or greater, write met. Smaller, write not met.

mol_smiles	label_class
NC[C@@H]1O[C@H](O[C@H]2[C@@H](O)[C@H](O[C@@H]3[C@@H](O)[C@H](N)C[C@H](N)[C@H]3O[C@H]3O[C@H](CO)[C@@H](O)[C@H](O)[C@H]3N)O[C@@H]2CO)[C@H](N)[C@@H](O)[C@@H]1O	met
NC[C@H]1O[C@H](O[C@H]2[C@H](O)[C@@H](O[C@H]3O[C@H](CO)[C@@H](O)[C@H](N)[C@H]3O)[C@H](N)C[C@@H]2N)[C@H](O)[C@@H](O)[C@@H]1O	not met
NC[C@H]1O[C@H](O[C@H]2[C@H](O[C@@H]3O[C@H](CO)[C@@H](O)[C@H]3O)[C@@H](O)[C@H](N)C[C@@H]2N)[C@H](N)[C@@H](O)[C@@H]1O	met
NCC[C@H](O)C(=O)N[C@@H]1C[C@H](N)[C@@H](O[C@H]2O[C@H](CN)[C@@H](O)[C@H](O)[C@H]2O)[C@H](O)[C@H]1O[C@H]1O[C@H](CO)[C@@H](O)[C@H](N)[C@H]1O	met
NC[C@@H]1O[C@H](O[C@H]2[C@@H](O)[C@H](O[C@@H]3[C@@H](O)[C@H](N)C[C@H](N)[C@H]3O[C@H]3O[C@H](CN)[C@@H](O)[C@H](O)[C@H]3N)O[C@@H]2CO)[C@H](N)[C@@H](O)[C@@H]1O	not met
NC[C@H]1O[C@H](O[C@H]2[C@H](O)[C@@H](O[C@H]3O[C@H](CO)[C@@H](O)[C@H](N)[C@H]3O)[C@H](N)C[C@@H]2N)[C@H](N)[C@@H](O)[C@@H]1O	not met

All figures here come from paper doi:10.1101/2025.03.30.646141v1.
